Cited source: PubChem BioAssay (NCI)

Reported growth values for a set of molecules
Tested on: A549/ATCC NSCLC
PROCEDURE TEXT: NCI-60 one-dose screen, 48 h (100 = growth as untreated, 0 = no growth, -100 = all killed)
STUDY CONDITIONS: 10 µM unless noted
About 83,000 compounds went through this panel and 20% of them were active in at least one assay; those are over-represented in the sample as a whole.
Provide only the numeric value, understood in %.

Solved cases below.
stdin: Given COc1ccc(/C=C2\COc3ccc(O)c(O)c3C2=O)cc1 , respond with its growth.
stdout: 38.1

stdin: Tell me its growth given O=C1/C(=C/c2ccc(-c3ccc(Br)cc3)o2)SC(=S)N1CCc1ccc(O)cc1 as the entry.
stdout: 67.5

stdin: Determine from records and report growth for O=C(Cn1c(=O)sc2nc3ccccc3nc21)Nc1ncc(Cc2cccc(Cl)c2Cl)s1
stdout: 99.6

---
stdin: Quote growth reported for N#Cc1nn(-c2cc(=O)[nH]c3ccc(Cl)cc23)c(N)c1C#N please.
stdout: 98.3

stdin: Respond only with growth recorded for COc1cc(N2C(=O)[C@H](O)C2c2ccc(SC)cc2)cc(OC)c1OC (stereo not given in full)
stdout: 17

====

Tested on: MCF7 breast
PROCEDURE TEXT: NCI-60 one-dose screen, 48 h
STUDY CONDITIONS: 10 µM unless noted
Compounds without any hit were thinned out: in the full panel of roughly 83,000, 20% have a hit. The source made the active and inactive calls. The calls were made as follows: active = growth percent below 10; inactive = the rest.
Lab note: assign the record to one of Yes = active, No = inactive

stdin: Fill in: this test's call for Cc1ccc(-c2nc(N3CCNCC3)c3oc(-c4ccccc4)nc3n2)cc1 is ___
stdout: Yes

stdin: Look up the recorded call for CCCCC[C@@H]1Cc2cc(O)c(C(=O)O)c3c2[C@H](C[C@]2(OC[C@@H](CC(=O)[C@@](C)(CC)C(=O)OC)[C@@H]2C)O3)O1 in this test.
stdout: No

stdin: Dear all, I need the recorded test outcome for COC(=O)/C=C1/SC(=Nc2ccc(C)cc2)N(CCc2c[nH]c3ccc(O)cc23)C1=O , thank you.
stdout: No

stdin: Test call for this molecule, please: O=C(NCCCCNC(=O)OCc1ccc2c(Cl)cc(Cl)c(O)c2n1)OCc1ccc2c(Cl)cc(Cl)c(O)c2n1
stdout: No

stdin: Recorded test outcome, item CCN1C(=O)N(CC)C2C1NN=c1s/c(=C\c3cccc([N+](=O)[O-])c3)c(=O)n12 (centres undefined)
stdout: No

stdin: Which outcome was entered for the molecule CCOC(=O)c1c(NC(=O)c2ccc(C(C)C)cc2)sc2c(CN(C)C)c(O)ccc12 in this test?
stdout: No

stdin: What outcome does the record of this test show for NC(=O)c1c(NC(=O)c2ccccc2)sc2c1CCC(=O)C2 ?
stdout: Yes

stdin: Recorded test outcome, item COc1ccc(-c2nc(/C=C3\SC(=NCc4ccccc4)NC3=O)c3ccccn23)cc1
stdout: Yes

Here's the next entry for you.
stdin: Kindly provide the recorded test outcome for the following molecule: CC(=O)n1nc(C(=O)OC(C)C)c2cc(C)c(C)cc21
stdout: No

====

System: CCRF-CEM leukemia
PROCEDURE TEXT: NCI-60 one-dose screen, 48 h (100 = growth as untreated, 0 = no growth, -100 = all killed)
STUDY CONDITIONS: 10 µM unless noted
About 83,000 compounds went through this panel and 20% of them were active in at least one assay; those are over-represented in the sample as a whole. The source made the active and inactive calls. The calls were made as follows: active = growth percent below 10; inactive = the rest.
MEASUREMENT TYPE: growth

Recorded results for 3 molecules are shown here.
stdin: Please report the measured growth for C=C(C)[C@@H]1CC[C@]2(C(=O)N3CCN(C)CC3)CC[C@]3(C)[C@H](CC[C@@H]4[C@@]5(C)CC(=C/c6ccncc6)/C(=N/O)C(C)(C)[C@@H]5CC[C@]43C)[C@@H]12
stdout: 57.9% (inactive)

stdin: Look up and state reported growth for N#Cc1cccc(F)c1
stdout: 104% (inactive)

stdin: Quickly give me recorded growth for Cn1cc(-c2csc(-c3c[nH]c4ccc(Br)cc34)n2)c2cnccc21
stdout: -39% (active)

---
stdin: // Input: Fc1cccc(CNc2c3ccccc3nc3ccccc23)c1F . Output its growth only.
stdout: 62.4% (inactive)

stdin: Using the record for O=C(NCc1ccccc1)Nc1ccccc1CNc1nc(Nc2ccc(OCCN3CCCC3)cc2)ncc1Cl , state its measured growth.
stdout: 20% (inactive)

stdin: Identify measured growth corresponding to Cn1cccc1C(=O)C1C(c2cccc([N+](=O)[O-])c2)C2C3CCCCC3CN2C12C(=O)Nc1ccc(Cl)cc12 (stereo not given)
stdout: 58.6% (inactive)

stdin: Supply measured growth of N#Cc1cccc(NC(=O)c2oc3ccccc3c2-c2cnn(-c3ccccc3)c2)c1 in your reply.
stdout: -21.3% [50 µM] (active)

stdin: Specify growth for CCCCCCCCn1ccc2cc(NC(=O)CN3CCN(c4nc(C)cc(Cl)n4)CC3)ccc21 and stop.
stdout: -34.6% (active)

stdin: Look up and state reported growth for COC(=O)c1cc(-c2ccccc2)[nH]c1N/N=C/c1c(Cl)cccc1Cl
stdout: -8.44% (active)

stdin: Return growth (reported value) for this molecule: O=C1c2cccnc2C(=O)c2c1c(C(=O)NCCCN1CCCCC1)c1ccccn21
stdout: -25.6% (active)
